- Test System: H1 receptor (Cavia porcellus, UniProt P31389)
- Sequence (P31389 whole entry): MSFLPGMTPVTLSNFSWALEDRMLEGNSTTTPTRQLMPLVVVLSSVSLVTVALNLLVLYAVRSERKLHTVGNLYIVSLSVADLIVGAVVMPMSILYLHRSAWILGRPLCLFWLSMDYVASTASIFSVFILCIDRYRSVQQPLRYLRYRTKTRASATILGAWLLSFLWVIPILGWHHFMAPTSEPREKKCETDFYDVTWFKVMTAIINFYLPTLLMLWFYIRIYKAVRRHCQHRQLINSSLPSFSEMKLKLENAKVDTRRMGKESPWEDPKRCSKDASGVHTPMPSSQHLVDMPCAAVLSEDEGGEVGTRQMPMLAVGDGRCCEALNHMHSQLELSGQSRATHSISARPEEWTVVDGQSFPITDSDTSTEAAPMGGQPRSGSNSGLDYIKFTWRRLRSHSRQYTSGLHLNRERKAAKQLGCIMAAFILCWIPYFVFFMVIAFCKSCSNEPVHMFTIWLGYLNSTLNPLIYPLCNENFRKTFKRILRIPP
Measurement Kind: Ki

c1cc(N2CCN(CCCOc3ccc(CN4CCOCC4)cc3)CC2)c2ccsc2c1	0.82 µM

====

- Test System: 5-HT2A receptor (Homo sapiens, UniProt P28223)
- Sequence (P28223 whole entry): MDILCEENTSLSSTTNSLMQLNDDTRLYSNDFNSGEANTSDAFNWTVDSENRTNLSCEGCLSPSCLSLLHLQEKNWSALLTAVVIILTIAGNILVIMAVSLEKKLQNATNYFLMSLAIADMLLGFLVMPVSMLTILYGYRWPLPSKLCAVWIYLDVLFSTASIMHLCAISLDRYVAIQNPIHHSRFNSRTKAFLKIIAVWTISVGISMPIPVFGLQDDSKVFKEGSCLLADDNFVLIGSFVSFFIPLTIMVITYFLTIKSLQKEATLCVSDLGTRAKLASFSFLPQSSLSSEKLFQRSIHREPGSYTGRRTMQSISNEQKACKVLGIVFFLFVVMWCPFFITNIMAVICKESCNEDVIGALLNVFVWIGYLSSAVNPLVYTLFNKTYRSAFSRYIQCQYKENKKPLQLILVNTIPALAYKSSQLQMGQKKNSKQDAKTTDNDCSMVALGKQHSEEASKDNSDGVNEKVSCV
- Procedure Text: 5-HT2A functional activity
Measurement Kind: IC50 (nM)

c1cc(N2CCN(CCCOc3ccc(CN4CCOCC4)cc3)CC2)c2ccsc2c1 [Compound 3w]	142

====

- Test System: D2 receptor (Rattus norvegicus, UniProt P61169)
- Sequence (P61169 whole entry): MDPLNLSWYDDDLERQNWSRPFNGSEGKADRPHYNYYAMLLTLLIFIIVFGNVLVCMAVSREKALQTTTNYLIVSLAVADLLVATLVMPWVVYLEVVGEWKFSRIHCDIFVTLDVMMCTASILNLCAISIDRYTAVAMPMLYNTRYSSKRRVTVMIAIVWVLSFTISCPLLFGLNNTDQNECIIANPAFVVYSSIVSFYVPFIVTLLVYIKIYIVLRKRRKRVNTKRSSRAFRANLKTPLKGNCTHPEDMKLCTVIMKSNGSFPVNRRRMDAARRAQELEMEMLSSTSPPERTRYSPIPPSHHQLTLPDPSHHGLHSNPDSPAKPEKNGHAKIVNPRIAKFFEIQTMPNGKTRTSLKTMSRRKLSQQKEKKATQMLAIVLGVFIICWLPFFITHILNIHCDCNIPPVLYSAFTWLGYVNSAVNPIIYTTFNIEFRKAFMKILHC
- Procedure Text: biochemical
pKi: −log10 of the molar value.
Catalogue of compounds with associated pKi
Measurement Kind: pKi

Fc1cc(OCCCN2CCN(c3cccc4sccc34)CC2)ccc1CN1CCCC1 [Compound 3d]	7.01
Fc1cc(OCCCN2CCN(c3cccc4sccc34)CC2)ccc1CN1CCCCC1 [Compound 3m]	6.96
Fc1cc(CN2CCCC2)ccc1OCCCN1CCN(c2cccc3sccc23)CC1 [Compound 3c]	7.00

====

Target chain: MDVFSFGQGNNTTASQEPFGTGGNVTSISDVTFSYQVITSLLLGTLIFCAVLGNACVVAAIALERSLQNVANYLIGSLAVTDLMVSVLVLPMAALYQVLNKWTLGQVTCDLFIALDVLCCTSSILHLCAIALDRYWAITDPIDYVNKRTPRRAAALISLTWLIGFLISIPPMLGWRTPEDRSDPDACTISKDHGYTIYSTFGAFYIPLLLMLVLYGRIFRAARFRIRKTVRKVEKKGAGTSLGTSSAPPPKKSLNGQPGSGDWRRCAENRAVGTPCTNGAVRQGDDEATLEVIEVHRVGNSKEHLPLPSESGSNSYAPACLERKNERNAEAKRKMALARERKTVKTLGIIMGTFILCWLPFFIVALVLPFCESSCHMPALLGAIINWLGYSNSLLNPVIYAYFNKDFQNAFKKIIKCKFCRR
pKi: −log10 of the molar value.
Catalogue of compounds with associated pKi
Measurement Kind: pKi

c1cc(N2CCN(CCCOc3ccc(CN4CCCC4)cc3)CC2)c2ccsc2c1	6.87
COc1cc(CN2CCCCC2)ccc1OCCCN1CCN(c2cccc3sccc23)CC1	6.64
COc1cc(CN2CCCC2)ccc1OCCCN1CCN(c2cccc3sccc23)CC1	6.83

Data origin, for the record: paper PMC9031908
